tested on: PDC 899932-113-R3-J6 complex spheroid viability; experiment: Anticancer human tumor 899932-113-R3-J6-PDC patient-derived melanoma cell line growth inhibition [RAS]; conditions: second compound 0.01 µM; first compound 0.1 µM; active means viability on the fitted dose curve at most 10% of control; inactive means the rest;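 further: spheroids exposed to agents for seven days before readout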
Assign a class; possible classes are active, inactive

q: How was C=CC(=O)Nc1cc(Nc2nccc(-c3cn(C)c4ccccc34)n2)c(OC)cc1N(C)CCN(C)C + C=CC(=O)N1CCN(c2nc(OCC3CCCN3C)nc3c(F)c(-c4nc(N)cc(C)c4C(F)(F)F)c(Cl)cc23)C(C)C1 classified in this test?
a: inactive

q: Answer briefly: the call reported for O=C(c1ccc(F)c(F)c1Nc1ccc(I)cc1F)N1CC(O)([C@@H]2CCCCN2)C1 + C=CC(=O)N1CCN(c2nc(OCC3CCCN3C)nc3c(F)c(-c4nc(N)cc(C)c4C(F)(F)F)c(Cl)cc23)C(C)C1 in this assay.
a: active

q: I'd appreciate the recorded outcome for CCN1CCN(Cc2ccc(Nc3ncc(F)c(-c4cc(F)c5nc(C)n(C(C)C)c5c4)n3)nc2)CC1 + C=CC(=O)N1CCN(c2nc(OCC3CCCN3C)nc3c(F)c(-c4nc(N)cc(C)c4C(F)(F)F)c(Cl)cc23)C(C)C1 from this test.
a: inactive

q: Could you kindly confirm the outcome this assay logged for CCC(CC)c1cc(NC2CCC(N)C2)n2nccc2n1 (stereo not given) + C=CC(=O)N1CCN(c2nc(OCC3CCCN3C)nc3c(F)c(-c4nc(N)cc(C)c4C(F)(F)F)c(Cl)cc23)C(C)C1 ?
a: inactive

q: Entry CC(C)NCC(C(=O)N1CCN(c2ncnc3c2C(C)CC3O)CC1)c1ccc(Cl)cc1 (stereo not given) + C=CC(=O)N1CCN(c2nc(OCC3CCCN3C)nc3c(F)c(-c4nc(N)cc(C)c4C(F)(F)F)c(Cl)cc23)C(C)C1 : call = ?
a: inactive
